Quick reference: MAX(MFI) of the listed items.
Target: T1, human ROR1 (hROR1) on cells (human, UniProt Q01973 30-937)
T1 construct: whole, on cells; the cell line is named under assay; also called HEK293T-hROR1; 293T-hROR1
T1 sequence (Q01973 30-937): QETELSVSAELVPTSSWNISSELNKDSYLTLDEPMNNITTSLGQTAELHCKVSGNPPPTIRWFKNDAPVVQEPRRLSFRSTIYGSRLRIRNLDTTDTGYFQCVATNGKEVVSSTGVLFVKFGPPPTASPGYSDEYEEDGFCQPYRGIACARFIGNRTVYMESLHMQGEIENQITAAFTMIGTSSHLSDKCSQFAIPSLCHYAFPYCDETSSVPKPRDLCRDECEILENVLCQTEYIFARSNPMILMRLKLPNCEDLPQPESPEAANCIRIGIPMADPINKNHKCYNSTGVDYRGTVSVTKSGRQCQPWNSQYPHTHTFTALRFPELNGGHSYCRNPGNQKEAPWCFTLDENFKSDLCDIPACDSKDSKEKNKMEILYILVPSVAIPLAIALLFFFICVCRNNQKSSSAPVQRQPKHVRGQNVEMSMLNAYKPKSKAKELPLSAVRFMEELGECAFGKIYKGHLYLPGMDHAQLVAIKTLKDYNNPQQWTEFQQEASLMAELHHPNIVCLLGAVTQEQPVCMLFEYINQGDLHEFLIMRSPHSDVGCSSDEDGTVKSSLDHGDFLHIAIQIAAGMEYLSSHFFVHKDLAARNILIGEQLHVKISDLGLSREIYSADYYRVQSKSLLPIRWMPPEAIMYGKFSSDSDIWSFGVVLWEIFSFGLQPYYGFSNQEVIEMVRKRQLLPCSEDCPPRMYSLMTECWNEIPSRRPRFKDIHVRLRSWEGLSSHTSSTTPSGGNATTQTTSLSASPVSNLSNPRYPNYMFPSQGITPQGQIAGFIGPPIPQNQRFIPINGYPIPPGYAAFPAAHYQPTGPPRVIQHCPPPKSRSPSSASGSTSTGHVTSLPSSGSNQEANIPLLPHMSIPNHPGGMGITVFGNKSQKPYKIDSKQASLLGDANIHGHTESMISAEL
Assay: FACS, A549 cells
Value expressed in MFI; do not type the unit.

Solved entries (count: 2):
- BINDER: "PR001368 (antibody, V domains shown, fully human IgG1, kappa) VH: QVQLVESGGGVVQPGRSLRLSCAASGFTFSTYGMHWVRQAPGKGLEWVAVIWYDGSDTDYADSVKGRFTISRDTSKNTLYLQMNSLRAEDTAVYYCAREQARSFDLWGRGTLVTVSS VL: DIVMTQSPSTLSASVGDRVTITCRASQSINSWLAWYQQKPGKAPKLLIYKASSLESGVPSRFSGSGSGTEFTLTISSLQPDDFATYYCQQYKSYSPMYTFGQGTKVEIKR"
  UNIT TEXT: "MFI"
  MAX(MFI): 4210
- BINDER: "PR001355 (antibody, human IgG1, kappa, V domains shown, fully human IgG1, kappa) VH: QVQLVQSGGGLVQPGGSLRLSCAASGFTFSSYGMHWVRQAPGKGLEWVAVIWYDGSNKDYADSVKGRFTISRDTSKNTLYLQMNSLRAEDTAVYYCVREQARSFDLWGRGTLVTVSS VL: DIQMTQSPSSLSASVGDRVTITCRASQTMNNWLAWYQQKPGKAPKLLIYKASSLESGVPSRFSGSGSGTEFTLTISSLQPDDSATYYCQQYNSYSPMYTFGQGTKLEIKR"
  UNIT TEXT: "MFI"
  MAX(MFI): 4240

Now let's try a different one.
Task: State the recorded MAX(MFI) for this entry: PR001363 (antibody, human IgG1, kappa, V domains shown, fully human IgG1, kappa) VH: QVQLVESGGGVVQPGRSLRLSCAASGFSFSSYAMHWVRQAPGRGLEWVAVIWYDGGDEDSIDSVKGRFTISRDDSKNTLYLQMNSLRAEDTAVYYCAREQARSFDLWGRGTLVTVSS VL: DVVMTQSPSTLSASVGDRVTITCRASQTINNWLAWYQQKPGKAPKLLIYKASSLESGVPSRFSGSGSGTEFTLTISSLQPDDFATYYCQQYNSYSPMYTFGQGTKVEIKR
Output: 3700
